# SYSTEM: SARS-CoV-2 spike protein receptor binding domain (RBD), wild type (SARS-CoV-2, UniProt P0DTC2 319-539)
# MEASUREMENT_DESCRIPTION: ELISA, RBD protein coated on plate, antibody titrated
PROPERTY_LABEL: log10(EC50) (log10 of the value in ng/mL)
Values below are the log10 of the recorded EC50, with ng/mL as the unit.

C527 (antibody, V domains shown) VH: QVQLVESGGGVVQPGRSLRLSCAASGFTFSSYGMHWVRQAPGKGLEWVALIGYDGTDKYYAENVKGRFTISRDNSKNTLFLQMNSLRGGDTAVYLCARDGIPFRYGMDVWGQGTTVTVSS VL: DIQMTQSPSTLSASVGDRVTITCRASQSIDIWLAWYQQKPGKAPKFLIHKASTLESGVPSRFSGSGSGTEFTLTISSLQPDDFATYYCQHYHSYSGTFGQGTKVEIK	1.13
C509 (antibody, V domains shown) VH: QVQLQESGPGLVKPSGTLSLTCAVSGGSISSSNWWSWVRQPPGKGLEWIGEIYNSGSTNYNPSLKSRVTILVDKSKNQFSLKLSSVTAADTAVYYCAGSYSNYIGGVWFDPWGQGTLVTVSS VL: EIVLTQSPATLSLSPGERATLSCRASQSVSTYLAWYQQKPGQAPRLLIYDASNRATGIPARFSGSGSGTDFTLTISSLEPEDFAVYYCQQRNNWLTFGGGTKVEIK	0.65
C502 (antibody, V domains shown) VH: QVQLVQSGAEVKKPGSSVKVSCKASGDTFSSHAINWVRQAPGQGLEWMGRSIPMLGVTTSAQKFKGRVTITADHSTSTVFMDLSSLRSDDTAIYYCARGVVGATPGSFDLWGQGTMVTVSS VL: EIVMTQSPATLSVSPGKRATLSCRASQSVRSNLAWYQQRPGQAPRLLIYDAATRATGIPTRFSGSGSGTEFTLTISSLQSEDFAVYYCQQYDNGLTFGGGTKVEIK	0.81
C513 (antibody, V domains shown) VH: EVQLLESGGGLVQPGGSLRLSCVASGFSFSTYAMSWVRQAPGQGLEWVSTITGTSIGTYYADSVKGRFTISRDNSKNTVFLQMKSLRAEDAAVYYCANHPLASGDEYYYYYMDVWGKGTTVTVSS VL: EIVLTQSPDTLSLSPGERATLSCRASQSVHSKQLAWYQQKPGQAPRLLIYGASSRATGIPDRFSGSGSGTDFTLTISRLEPEDFAVYYCQQYGSIRALTFGGGTKVEIK	0.12
C512 (antibody, V domains shown) VH: QVQLQESGPGLVKPSGTLSLTCAVSAGSISSNNWWSWVRQPPGKGLEWIGEVYHNGNINYNPSLKSRVTLSVDKSKNQFSLKLSSVTAADTAVYYCAKGGDRAMGPEYFDSWGQGTLVTVSS VL: QSALTQPASVSGSPGQSITISCTGTSSDVGANNYVSWYQQHPGKAPKLMIYDVNERPSGVSNRFSGSKSGNTASLTISGLQTEDEADYYCSSFASSSTLLFGGGTKLTVL	0.23

Fill in: log10(EC50) of C504 (antibody, V domains shown) VH: QVQLQESGPGLVKPSETLSLTCTVSGGSISSSYWNWIRQSPGKGLEWIGYIYYDGYTTFNPSLKSRVTISVDTSKNQFSLKLSSVTAADTAFYYCAAGLKGRSSSWYEYWGQGTLVTVSS VL: DIQMTQSPSSLSASVGDRVTITCRASQSISSYLNWYQQKPGKAPKLLIYATSSLQSGVPSRFSGSGSGTDFTLTITSLQPEDFATYYCQQTYSSPHTFGQGTKLEIK is ___ 0.96

Fill in: log10(EC50) of C532 (antibody, V domains shown) VH: EVQLVQSGAEVKKPGESLKISCKGSGYRFTNYWIGWVRQMPGKGLEWIGNIFPGDSDSRYSPSFQGQVTISVDMSITTAYLHWSSLKASDTAIYYCARLSERWYSPFDSWGQGTLVTVSS VL: EIVMTQSPATLSVSPGERATLSCRASQSVSSNLAWYQQKPGQAPRLLIYGASTRATGFPARFSGSGSGTEFTLTISSLQSEDFAVYFCQQYNNWPPGGFTFGPGTKVDIK is ___ 0.00

Fill in: log10(EC50) of C597 (antibody, V domains shown) VH: QVQLVQSGPEVKKPGTSVKVSCKASGFTFTNSAVQWVRQSRRQRLEWIGWIVVGSGNTNYAQKFQERVTITRDMSTSTAYMELSSLRSEDTAVYYCAAVDCNSTSCYDAFDIWGQGTMVTVSS VL: EIVLTQSPGTLSLSPGERATLSCRASQSFRSSYLAWYQQKPGQAPRLLIYGASSRATGIPDRFSGSGSGSDFTLTISRLEPEDFAVYYCQQYDISPWTFGQGTKVEIK is ___ 0.58

Fill in: log10(EC50) of C516 (antibody, V domains shown) VH: QVQLVQSGAEVKKPGSSVKVSCKASGGTFSSYAISWVRQAPGQGLEWMGRIIPMLVIATYARKFQGRVTITADKSTSTAYMELSSLRSEDTAVYYCARGVVAATPGNFDIWGQGTMVTVSS VL: EIVMTQSPATLSVSPGERATLSCRASQSVSSNLAWYQQKPGQAPRLLIYGASTRATGIPARFSGSGSGTEFTLTISSLQSEDFAVYYCQQYNNGLTFGGGTKVEIK is ___ 0.76

Fill in: log10(EC50) of C526 (antibody, V domains shown) VH: QVQLVQSGAEVKKPGASVKVSCKASGHTFTTYYLHWVRQAPGQGLEWMGRIDPSGGSTTYAQKFQGRVTMTRDTSTSTVYMELSSLRSEDTALYYCARGGYCGSTSCSPDDYFDYWGQGTLVTVSS VL: SYELTQPPSVSVAPGKTARITCGGNNIGSKSVHWYQQKPGQAPVLVIYYDSDRPSGIPERFSGSNSGNTATLTISRVEAGDEADYYCQVWDSSSDHYYVFGTGTKVTVL is ___ 1.26
